- Tested on: U2OS
- RUN_DESCRIPTION: Multiplex assay against U2OS
- Type: toxicity, cell-based
- CONDITION_SUMMARY: human, 12 h, 10 µM, compound concentration 10 uM, replicate 2
ENDPOINT_NAME: Population Hoechst High Intensity Objects (%)

Query Population Hoechst High Intensity Objects (%) for C[C@@H](NCCCc1cccc(C(F)(F)F)c1)c1cccc2ccccc12.Cl [CINACALCET HYDROCHLORIDE]
7%

Name the recorded Population Hoechst High Intensity Objects (%) of the item Cc1nc(-c2ccc(-c3ccc(C(=O)N4CCc5cc6c(cc54)C4(CCN(C)CC4)CO6)cc3)c(C)c2)no1 in your answer.
11%

Please report the measured Population Hoechst High Intensity Objects (%) for CN1CCN(CCOc2cc(OC3CCOCC3)c3c(Nc4c(Cl)ccc5c4OCO5)ncnc3c2)CC1
7%

Give Population Hoechst High Intensity Objects (%) for CN(C)CC#Cc1ccc(OCCCc2sc(N3CCc4cccc(C(=O)Nc5nc6ccccc6s5)c4C3)nc2C(=O)O)c(F)c1
5%

###

- Tested on: Fibroblast
- RUN_DESCRIPTION: Multiplex assay against human fibroblast
- Format: toxicity, cell-based
- CONDITION_SUMMARY: 12 h, 10 µM, compound concentration 10 uM, replicate 2
ENDPOINT_NAME: Population Fragmented Nuclei (%)
Give the value; after it, write the unit.

Please tell me the measured Population Fragmented Nuclei (%) for CCN(CC)CCCCNc1ncc2cc(-c3cc(OC)cc(OC)c3)c(NC(=O)NC(C)(C)C)nc2n1 [PD-173074] ; system: Fibroblast.
54%

# assay system Fibroblast: give Population Fragmented Nuclei (%) of CN1CCN(CCOc2cc(OC3CCOCC3)c3c(Nc4c(Cl)ccc5c4OCO5)ncnc3c2)CC1 [SARACATINIB]
9%

Write Population Fragmented Nuclei (%) of C=CC(=O)Nc1cccc(C(=O)Nc2ccc(Nc3cc(-c4[nH]c(SC)nc4C)ccn3)cc2)c1 ; system used: Fibroblast
6%

Specify Population Fragmented Nuclei (%) for COc1cccc([C@@H](C)NCCCc2ccccc2Cl)c1.Cl [TECALCET HYDROCHLORIDE] , system Fibroblast.
7%

Param request: Population Fragmented Nuclei (%) | system Fibroblast | item CN1CCC[C@@H]1CCO[C@](C)(c1ccccc1)c1ccc(Cl)cc1.O=C(O)/C=C/C(=O)O [CLEMASTINE FUMARATE]
19%

Answer briefly: Population Fragmented Nuclei (%) recorded on Fibroblast for CN1C(=O)c2sccc2N(C)c2nc(Nc3ccc(S(N)(=O)=O)cc3)ncc21
52%

Jot down Population Fragmented Nuclei (%) (Fibroblast) of Cc1nc(Nc2n[nH]c3c2CN(C(=O)N[C@H](CN(C)C)c2ccccc2)C3(C)C)c2sccc2n1 [PF-03758309] .
57%

Retrieve Population Fragmented Nuclei (%) on Fibroblast; query COc1ncc(-c2ccc3nccc(-c4ccnnc4)c3c2)cc1NS(=O)(=O)c1ccc(F)cc1F [OMIPALISIB]
33%

Report value: Population Fragmented Nuclei (%), system: Fibroblast, compound: CC[C@H](C)C(=O)O[C@H]1C[C@@H](C)C=C2C=C[C@H](C)[C@H](CC[C@@H]3C[C@@H](O)CC(=O)O3)[C@H]21 [LOVASTATIN]
4%

Answer briefly: Population Fragmented Nuclei (%) recorded on Fibroblast for CN(C)CC#Cc1ccc(OCCCc2sc(N3CCc4cccc(C(=O)Nc5nc6ccccc6s5)c4C3)nc2C(=O)O)c(F)c1 [A-1155463]
33%

Look up Fibroblast data: Population Fragmented Nuclei (%) of C=CC(=O)Nc1ccc2ncnc(Nc3ccc(OCc4cccc(F)c4)c(Cl)c3)c2c1.Cc1ccc(S(=O)(=O)O)cc1 , then report it.
14%

Give measured Population Fragmented Nuclei (%) for COc1cc(-n2cnc3cc(-c4ccc(Cl)cc4)sc3c2=O)ccc1OCCN1CCCC1 (Fibroblast).
22%
